All values here come from patent US20240247080A1.

# STUDY_SYSTEM: hNPY2R (Homo sapiens, UniProt P49146)
# Construct: expressed in transfected cells; host or cells: HEK-293 cells carrying a CRE-luciferase reporter gene
# Sequence (P49146 whole entry): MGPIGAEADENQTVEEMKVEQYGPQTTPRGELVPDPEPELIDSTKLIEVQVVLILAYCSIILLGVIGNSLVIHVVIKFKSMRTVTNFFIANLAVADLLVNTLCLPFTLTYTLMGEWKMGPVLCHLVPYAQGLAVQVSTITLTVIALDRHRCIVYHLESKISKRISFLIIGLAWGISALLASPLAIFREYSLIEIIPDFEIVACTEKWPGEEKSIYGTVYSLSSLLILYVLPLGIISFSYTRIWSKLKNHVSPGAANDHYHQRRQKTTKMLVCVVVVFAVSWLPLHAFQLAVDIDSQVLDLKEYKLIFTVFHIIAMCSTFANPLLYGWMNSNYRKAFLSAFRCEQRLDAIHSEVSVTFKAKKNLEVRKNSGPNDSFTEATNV
# EXPERIMENT_DESCRIPTION: hNPY2R CreLuc reporter gene assay in 0.5% and 100% plasma
# Assay type: cell-based
# SETUP_CONDITIONS: CreLuc reporter gene assay, 0.5% human plasma; read-out: hNPY2R 0.5% hP
Starred links: 1 amine or outer side, 2 acyl side, 3 side chain; linkers in the order of their positions; H or OH if unused. Non-standard residues stand in square brackets, D forms with d. Groups on a side chain read outwards from the residue. *: point of attachment. C20 diacid = O=C(O)CCCCCCCCCCCCCCCCCCC(=O)*; C18 diacid = O=C(O)CCCCCCCCCCCCCCCCC(=O)*; γGlu = O=C(O)[C@H](CCC(=O)[*:2])N[*:1]; εLys = N[C@@H](CCCCN[*:1])C(=O)[*:2]; AEEA = NCCOCCOCC(=O)O; Aib = CC(C)(N)C(=O)O; Ahx = NCCCCCC(=O)O
Hi there, I'd appreciate the recorded EC50 for every entry that follows.
Numbers only; they are read as nM.

Lookup: # lookup: EC50 of H-Y[Aib]EGTFTSDYSI[Aib]LEKQAQ[Aib]AFVQWLIK([Ahx-γGlu-γGlu-γGlu-γGlu-γGlu-γGlu-C18 diacid])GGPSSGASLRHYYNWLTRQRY-NH2 [Compound 139]
Found: 18.3

Lookup: # lookup: EC50 of H-Y[Aib]EGTFTSDYSI[Aib]LEKQAQ[Aib]AFVQWLIK([AEEA-AEEA-γGlu-γGlu-γGlu-γGlu-C18 diacid])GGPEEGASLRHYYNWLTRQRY-NH2 [Compound 146]
Found: 14

Lookup: # lookup: EC50 of H-Y[Aib]EGTFTSDYSI[Aib]LEKQAQ[Aib]AFVEWLIK([εLys-γGlu-γGlu-γGlu-γGlu-γGlu-γGlu-C20 diacid])GGPSEGVSLRHYYNWLTRQRY-NH2 [Compound 241]
Found: 16.7

Lookup: # lookup: EC50 of H-Y[Aib]EGTFTSDYSI[Aib]LEKQAQ[Aib]AFVEWLIK([γGlu-γGlu-γGlu-γGlu-γGlu-C18 diacid])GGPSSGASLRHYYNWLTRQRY-NH2 [Compound 253]
Found: 13.4

Lookup: # lookup: EC50 of H-Y[Aib]EGTFTSDYSI[Aib]LEKQAQ[Aib]AFIEWLIK([AEEA-AEEA-γGlu-γGlu-γGlu-γGlu-C20 diacid])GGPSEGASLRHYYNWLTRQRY-NH2 [Compound 231]
Found: 19.2
